Test system: Enterococcus sp.
testName: in vitro antibacterial evaluation, MIC by broth dilution
Format: cell-based
details: Enterococcus faecalis (GC 4552); broth dilution, 18 hours at 35° C.
As shown below, each of these molecules has a reported MIC Enterococcus faecalis (GC 4552) value.
readout: MIC Enterococcus faecalis (GC 4552) (µg/mL)

>>> obsvalue("CC(c1ccccc1)C1NC(=O)CNC(=O)C(CO)NC(=O)C(C(O)C2CNC(=N)N2C2OC(CO)C(O)C(O)C2O)NC(=O)C(C(O)C2CNC(=N)N2)NC(=O)C(Cc2ccc(OC3OC(COC(=O)C(c4ccccc4)c4ccccc4)C(OC4OC(CO)C(O)C(O)C4O)C(O)C3O)cc2)NC1=O (stereo not shown) [Example 96b]")
8
>>> obsvalue("CC(C)=CCCC(C)CC1OCC2OC(OC3C(CO)OC(Oc4ccc(CC5NC(=O)C(C(C)c6ccccc6)NC(=O)CNC(=O)C(CO)NC(=O)C(C(O)C6CNC(=N)N6C6OC(CO)C(O)C(O)C6O)NC(=O)C(C(O)C6CNC(=N)N6)NC5=O)cc4)C(O)C3O)C(O)C(O)C2O1 (stereo not shown)")
8
>>> obsvalue("CCCCCCCN1CC(C(O)C2NC(=O)C(C(O)C3CNC(=N)N3)NC(=O)C(Cc3ccc(OC4OC(CO)C(OC5OC6COC7(OC6C(O)C5O)C5CC6CC(C5)CC7C6)C(O)C4O)cc3)NC(=O)C(C(C)c3ccccc3)NC(=O)CNC(=O)C(CO)NC2=O)N(C2OC(CO)C(O)C(O)C2O)C1=N (stereo not shown)")
4
>>> obsvalue("CCOc1cc(C2OCC3OC(OC4C(CO)OC(Oc5ccc(CC6NC(=O)C(C(C)c7ccccc7)NC(=O)CNC(=O)C(CO)NC(=O)C(C(O)C7CNC(=N)N7C7OC(CO)C(O)C(O)C7O)NC(=O)C(C(O)C7CNC(=N)N7)NC6=O)cc5)C(O)C4O)C(O)C(O)C3O2)ccc1OC (stereo not shown)")
32
>>> obsvalue("COc1cc(C2OCC3OC(OC4C(CO)OC(Oc5ccc(CC6NC(=O)C(C(C)c7ccccc7)NC(=O)CNC(=O)C(CO)NC(=O)C(C(O)C7CNC(=N)N7C7OC(CO)C(O)C(O)C7O)NC(=O)C(C(O)C7CNC(=N)N7)NC6=O)cc5)C(O)C4O)C(O)C(O)C3O2)ccc1[N+](=O)[O-] (stereo not shown)")
8
>>> obsvalue("CC(C)=CCCC(C)C1OCC2OC(OC3C(CO)OC(Oc4ccc(CC5NC(=O)C(C(C)c6ccccc6)NC(=O)CNC(=O)C(CO)NC(=O)C(C(O)C6CNC(=N)N6C6OC(CO)C(O)C(O)C6O)NC(=O)C(C(O)C6CNC(=N)N6)NC5=O)cc4)C(O)C3O)C(O)C(O)C2O1 (stereo not shown)")
32
>>> obsvalue("CC(c1ccccc1)C1NC(=O)CNC(=O)C(CO)NC(=O)C(C(O)C2CNC(=N)N2C2OC(CO)C(O)C(O)C2O)NC(=O)C(C(O)C2CNC(=N)N2)NC(=O)C(Cc2ccc(OC3OC(CO)C(OC4OC(COC(=O)OCc5ccccc5)C(O)C(O)C4O)C(O)C3O)cc2)NC1=O (stereo not shown) [Example 101a]")
16
